- system: human GPR40 (Homo sapiens, UniProt O14842)
- Sequence (O14842 whole entry): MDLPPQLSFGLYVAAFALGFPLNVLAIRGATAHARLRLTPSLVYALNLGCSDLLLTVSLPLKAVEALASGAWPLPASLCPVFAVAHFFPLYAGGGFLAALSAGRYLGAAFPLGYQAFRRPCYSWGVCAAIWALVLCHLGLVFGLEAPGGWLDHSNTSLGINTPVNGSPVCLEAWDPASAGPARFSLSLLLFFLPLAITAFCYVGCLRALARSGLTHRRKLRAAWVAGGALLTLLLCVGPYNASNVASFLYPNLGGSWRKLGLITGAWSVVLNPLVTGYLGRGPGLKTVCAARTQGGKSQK
- test.details: Induction of Ca2+ (calcium flux assay) using human GPR40 expression cell line
- condition.notes: read-out: EC0.5
pEC50: −log10 of the molar value.
readout.label: pEC50

[
  {
    "compound": "CC#C[C@@H](CC(=O)O)c1ccc(OCc2ccc3cnn(Cc4cnc(C)cn4)c3c2)cc1",
    "observed.result": "6.30 to 7.30"
  },
  {
    "compound": "CC#C[C@@H](CC(=O)O)c1ccc(OCc2ccc3c(cnn3CC3CCCO3)c2)cc1 (some centres unmarked)",
    "observed.result": "7.30 to 9.00"
  },
  {
    "compound": "CC#C[C@@H](CC(=O)O)c1ccc(OCc2ccc3ccn(Cc4ccc(Cl)nc4)c3c2C)cc1",
    "observed.result": "7.30 to 9.00"
  },
  {
    "compound": "CC#C[C@@H](CC(=O)O)c1ccc(OCc2ccc3cnn(Cc4cnn(C)c4)c3c2)cc1",
    "observed.result": "6.30 to 7.30"
  },
  {
    "compound": "CC#C[C@@H](CC(=O)O)c1ccc(OCc2ccc3ccn(Cc4cccc(F)c4)c3c2C)cc1",
    "observed.result": "6.30 to 7.30"
  },
  {
    "compound": "CC#C[C@@H](CC(=O)O)c1ccc(OCc2ccc3c(cnn3CC3CCOC3)c2)cc1 (some centres unmarked)",
    "observed.result": "7.30 to 9.00"
  },
  {
    "compound": "CC#C[C@@H](CC(=O)O)c1ccc(OCc2ccc3ccn(Cc4csc(C)n4)c3c2C)cc1",
    "observed.result": "7.30 to 9.00"
  },
  {
    "compound": "CC#C[C@@H](CC(=O)O)c1ccc(OCc2cc(C)c3c(cnn3C(C)C)c2)cc1",
    "observed.result": "7.30 to 9.00"
  }
]
